- System: SAMD9 promoter
- measurement-description: High-throughput luciferase reporter screen in HeLa line stably expressing 585 bp SAMD9 promoter fragment
- Format: cell-based, human
- reported-conditions: Homo sapiens, HeLa; fold increase in promoter activity by luciferase assay vs cells treated with vehicle only; test drugs 10 μM, 24 hours; read-out: SAMD9 expression fold change in HeLa reporter assay
Listed below: fold induction at 10 µM values for each entry.
Lab note: jot the number down without any unit.

smiles_str=CCCN1c2ccc(N)cc2S(=O)(=O)c2cc(Cl)cc(Cl)c21 metric_name="fold induction at 10 µM" observed_result=4.85

**Q:** Complete the entry with fold induction at 10 µM for `CN(C)c1ccc(/C=C2\Cc3ccccc3C2=O)cc1Br`
**A:** 2.64

**Q:** Complete the entry with fold induction at 10 µM for `CN(CCc1ccccn1)c1ccc2c(c1)C(=O)c1ccccc1-2`
**A:** 2.84

**Q:** Complete the entry with fold induction at 10 µM for `COc1ccc(-c2csc(=[N+]3CCCCC3)s2)cc1`
**A:** 2.72

**Q:** Complete the entry with fold induction at 10 µM for `O=C1C(O)=C(CC=C(Cl)Cl)C(=O)c2ccccc21`
**A:** 2.23

---

- Test system: SAMD9 promoter
- measurement-description: High-throughput luciferase reporter screen in HeLa line stably expressing 585 bp SAMD9 promoter fragment
- Assay type: cell-based, human
- reported-conditions: Homo sapiens, HeLa; fold increase in promoter activity by luciferase assay vs cells treated with vehicle only; test drugs 10 μM, 24 hours; read-out: SAMD9 expression fold change in HeLa reporter assay
metric-name: fold induction at 10 µM
Lab note: jot the number down without any unit.

Use these answered entries as a reference point.
compound=Cc1cccc(NC(=O)C=Cc2ccc([N+](=O)[O-])cc2)c1 tested_target="SAMD9 promoter" observed_result=2.03
compound=O=C1Oc2ccccc2C(=O)/C1=C1/C=C(c2ccccc2)SS1 tested_target="SAMD9 promoter" observed_result=2.82
compound="N#CC(NCc1cccc(CNC(C#N)c2ccccc2)c1)c1ccccc1 (centres unmarked)" tested_target="SAMD9 promoter" observed_result=2.48
compound=CCN1C(=O)/C(=C\Nc2ccccc2)S/C1=N\Nc1ncc(CC(=O)Nc2ccccc2C)s1 tested_target="SAMD9 promoter" observed_result=2.03
compound=CCN(CC)CCNc1ccc2nc(C)n3c4ccc(OC)cc4c(=O)c1c23.Cl tested_target="SAMD9 promoter" observed_result=3.7
compound="COc1ccc(/C(=N\\O)C(c2ccc(OC)cc2)C2C(=O)Oc3ccccc32)cc1 (centres unmarked)" tested_target="SAMD9 promoter" observed_result=3.25
compound=COc1ccc(/C=C2\Cc3ccccc3C2=O)cc1OC tested_target="SAMD9 promoter" observed_result=2.17

Consider now this further compound.
**Q:** Complete the entry with fold induction at 10 µM for `Nc1ncnc2c1nc(Cl)n2[C@@H]1O[C@@H]2COP(=O)(O)O[C@H]2[C@H]1O`
**A:** 2.14

---

Listed below: fold induction at 10 µM values for each entry.
- Tested on: SAMD9 promoter
- measurement-description: High-throughput luciferase reporter screen in HeLa line stably expressing 585 bp SAMD9 promoter fragment
- Type: cell-based, human
- reported-conditions: Homo sapiens, HeLa; fold increase in promoter activity by luciferase assay vs cells treated with vehicle only; test drugs 10 μM, 24 hours; read-out: SAMD9 expression fold change in HeLa reporter assay
Counter-ions that a name gives are not always drawn.
Lab note: jot the number down without any unit.

Use these answered entries as a reference point.
compound="COc1cccc2c1C(=O)c1c(O)c3c(c(O)c1C2=O)C[C@@](O)(C(C)=O)C[C@@H]3O[C@H]1C[C@H](N(Cc2ccccc2)Cc2ccccc2)[C@H](O)[C@H](C)O1 [Compound 268242, N,N-Dibenzyldaunorubicin hydrochloride]" metric_name="fold induction at 10 µM" observed_result=4.84
compound="O=C(c1nc2ccc(Cl)cc2nc1O)C(O)c1ccc2c(c1)OCO2 (stereo not drawn)" metric_name="fold induction at 10 µM" observed_result=2.8

Consider now this further compound.
**Q:** GET fold induction at 10 µM | system: SAMD9 promoter | item: NC(Cc1ccc2oc3cc(=O)c4ccccc4c-3nc2c1)C(=O)O (stereo not drawn) [Compound 672425, nitrate salt]
**A:** 2.11

---

- Test system: SAMD9 promoter
- measurement-description: High-throughput luciferase reporter screen in HeLa line stably expressing 585 bp SAMD9 promoter fragment
- Format: cell-based, human
- reported-conditions: Homo sapiens, HeLa; fold increase in promoter activity by luciferase assay vs cells treated with vehicle only; test drugs 10 μM, 24 hours; read-out: SAMD9 expression fold change in HeLa reporter assay
metric-name: fold induction at 10 µM
Lab note: jot the number down without any unit.

Use these answered entries as a reference point.
smiles_str=Cc1cc(Cl)ccc1N1C(=O)C(=O)C(c2nc3ccccc3o2)C(=O)C1=O observed_result=2.74
smiles_str=C[C@@H](CSC(=O)c1ccccc1)C(=O)N1c2ccccc2C[C@@H]1C(=O)O observed_result=2.26

Consider now this further molecule.
**Q:** Complete the entry with fold induction at 10 µM for `CN(C)c1ccc2c(SCC(=O)OCC(=O)[C@@]3(O)CC[C@H]4[C@@H]5CCC6=CC(=O)C=C[C@]6(C)[C@H]5C(=O)C[C@@]43C)c3ccc(N(C)C)cc3nc2c1`
**A:** 2.37

---

- Test system: SAMD9 promoter
- measurement-description: High-throughput luciferase reporter screen in HeLa line stably expressing 585 bp SAMD9 promoter fragment
- Type: cell-based, human
- reported-conditions: Homo sapiens, HeLa; fold increase in promoter activity by luciferase assay vs cells treated with vehicle only; test drugs 10 μM, 24 hours; read-out: SAMD9 expression fold change in HeLa reporter assay
Listed below: fold induction at 10 µM values for each entry.
Lab note: jot the number down without any unit.

Use these answered entries as a reference point.
compound="CC[C@@]1(O)C[C@H](OC2CC(N(C)C)C(OC3CC(O)C(CC4CC(O)C(O)C(C)O4)C(C)O3)C(C)O2)c2c(cc3c(c2O)C(=O)c2c(O)ccc(O)c2C3=O)[C@H]1C(=O)OC (stereo partly drawn) [Compound 265211, Rhodirubin E]" metric_name="fold induction at 10 µM" observed_result=3.36
compound="COc1ccc(/C=C2\\CCc3ccccc3C2=O)cc1OC [Compound 643175]" metric_name="fold induction at 10 µM" observed_result=2.47

Consider now this further compound.
**Q:** GET fold induction at 10 µM | system: SAMD9 promoter | item: Cc1c2ccnc(C(N)=O)c2c(C)c2c1[nH]c1ccccc12.Cl [Compound 335142, monohydrochloride]
**A:** 2.95
